Test system: EKVX NSCLC
Test: NCI tumour cell line growth inhibition, 48 h
Endpoint name: TGI

Worked examples follow.
COC(=O)C(C/C=C(\C)c1ccccc1)C(C)=O (stereo unspecified)	> 100 µM
NC(=O)n1ncc(Cl)c(Cl)c1=O	> 100 µM
O=C(O)CCC(NC(=O)c1ccc(Nc2nc3ccc(C(F)(F)F)cc3nc2-c2ccccc2)cc1)C(=O)O (stereo unspecified)	> 100 µM

// Input: CCOc1ccc2nc3cc(N=Nc4ccc(N)nc4N)ccc3c(N)c2c1 . Output its TGI only.
45.3 µM

// Input: CCN(CC)c1ccc2c(cc1=O)[C@@H](NC(C)=O)CCc1cc(OC)c(OC)c(OC)c1-2 . Output its TGI only.
> 100 µM

// Input: SCCCSCCSCCCSCCS . Output its TGI only.
> 100 µM

---

Tested on: SNB-75 CNS
Test: NCI tumour cell line growth inhibition, 48 h
Below is a list of entries, each paired with its recorded TGI value.

Give TGI only, for O=C(O)COc1cc(-c2ccccc2)nc2ccc(F)cc12 , using SNB-75 CNS data.
> 100 µM

Give TGI only, for COc1ccccc1-n1c(C)nc2ccccc2c1=O , using SNB-75 CNS data.
> 100 µM

Give TGI only, for COc1ccc2[nH]c(C(O)(Cc3cccnc3)Cc3cccnc3)cc2c1 , using SNB-75 CNS data.
> 100 µM

Give TGI only, for CCC(CN(C)C)C(=O)c1ccco1 (stereo unspecified) , using SNB-75 CNS data.
> 100 µM

Give TGI only, for O=C(NC1CCC(Br)CC1)C1CCCC(S(=O)(=O)NC2CCCCC2)C1 (stereo unspecified) , using SNB-75 CNS data.
69.5 µM

Give TGI only, for CCC[C@H](N[C@H]1CCc2cc(F)cc(F)c2C1)C(=O)Nc1cn(C(C)(C)CNCC(C)(C)C)cn1 , using SNB-75 CNS data.
> 100 µM

---

System: SF-295 CNS
Experiment: NCI tumour cell line growth inhibition, 48 h
Endpoint name: TGI

Worked examples follow.
CC(=O)Nc1ccc(NNc2cc(=O)n(C)c(=O)[nH]2)cc1	29.3 µM
CC[C@]1(Cc2ccc(OC)c(OC)c2)[C@@H]2C[C@@H](C(=O)OC)ON2O[C@H](OC2CCCC2(c2ccccc2)c2ccccc2)[C@@H]1OC(C)=O (stereo partly drawn)	> 100 µM

// switching to the query compound
// Input: O=C1CC2(CCC(O)(c3cccc4ccccc34)C(C(=O)c3cccc4ccccc34)C2)C(=O)c2ccccc2N1 (stereo not drawn) . Output its TGI only.
> 100 µM

---

Test system: MDA-MB-435
Test: NCI tumour cell line growth inhibition, 48 h
Below is a list of entries, each paired with its recorded TGI value.

Worked examples follow.
COC1/C=C/C(C)C(OC)CC(O)/C=C/C(C)C(C(C)C(OC)C(C)CCC(=O)C(C)C(C/C=C/N(C)C=O)OC)OC(=O)/C=C/C=C(\C)CC(OC)CC2=CC(=O)O[C@@H](C(C)C(OC)C1)[C@H]2O (some centres undefined)	1.05 µM
CCOc1ccc(NC(=O)/C(=N\N)C(C(=O)OC)c2nc3ccc(Cl)cc3[nH]c2=O)cc1 (centres undefined)	> 100 µM
COc1ccc(CN2C(=O)C(Cl)=C(Nc3cccc(O)c3)C2=O)cc1	1.7 µM
O=C(O)COc1cc(-c2ccccc2)nc2ccc(F)cc12	> 100 µM
CCCCCc1c(C)[nH]c(/C=C2\N=C(c3ccc[nH]3)C=C2Oc2ccccc2)c1C	0.058 µM

// Input: O=c1ccn(C2OC(COC3CCCCO3)C(OC3CCCCO3)C2OC2CCCCO2)c(=O)n1-c1ccccc1 (centres undefined) . Output its TGI only.
> 100 µM

// Input: CCNC(=S)NNC(=O)c1csc(NC(=S)NC2CCCCC2)n1 . Output its TGI only.
21.1 µM

// Input: CC(=O)Nc1ccc2c(C3=C(c4cn(C)c5ccccc45)C(=O)NC3=O)cn(C)c2c1 . Output its TGI only.
0.842 µM

// Input: CN(C)c1ccc(/C=N/N=C2\C(=O)Nc3c(Cl)cc(Cl)cc32)cc1 . Output its TGI only.
> 100 µM

// Input: O=C1OC(c2ccccc2)=N/C1=C\c1ccc(F)cc1 . Output its TGI only.
> 100 µM

// Input: Cc1ccc(C)c(COc2cc(NC(=O)c3ccc4c(c3)OCO4)ccc2N(C)S(C)(=O)=O)c1 . Output its TGI only.
0.0718 µM

// Input: [N-]=[N+]=NCCCn1c2c(c3ccccc3c1=O)C(=O)c1cc(Br)ccc1-2 . Output its TGI only.
> 100 µM
